details: in ethyl acetate, 278.15 K
measured_quantity: solubility (mole fraction)
Provide a numeric answer; units are not to be included.

Notebook: `CCCNS(=O)(=O)Nc1ncnc(OCCOc2ncc(Br)cn2)c1-c1ccc(Br)cc1` , solubility (mole fraction) read as 0.00406

###

conditions: in methanol, 303.15 K
measured_quantity: solubility (mole fraction)

Notebook: `CCCNS(=O)(=O)Nc1ncnc(OCCOc2ncc(Br)cn2)c1-c1ccc(Br)cc1` , solubility (mole fraction) read as 0.000358

###

conditions: in isopropanol, 298.15 K
measured_quantity: solubility (mole fraction)
Provide a numeric answer; units are not to be included.

Notebook: `CCCNS(=O)(=O)Nc1ncnc(OCCOc2ncc(Br)cn2)c1-c1ccc(Br)cc1` , solubility (mole fraction) read as 0.000141

###

conditions: in ethyl acetate, 293.15 K
measured_quantity: solubility (mole fraction)
Provide a numeric answer; units are not to be included.

Notebook: `CCCNS(=O)(=O)Nc1ncnc(OCCOc2ncc(Br)cn2)c1-c1ccc(Br)cc1` , solubility (mole fraction) read as 0.00681

###

settings: in ethanol, 288.15 K
measured_quantity: solubility (mole fraction)
Provide a numeric answer; units are not to be included.

Notebook: `CCCNS(=O)(=O)Nc1ncnc(OCCOc2ncc(Br)cn2)c1-c1ccc(Br)cc1` , solubility (mole fraction) read as 0.000151

###

settings: in isopropanol, 273.15 K
measured_quantity: solubility (mole fraction)

Notebook: `CCCNS(=O)(=O)Nc1ncnc(OCCOc2ncc(Br)cn2)c1-c1ccc(Br)cc1` , solubility (mole fraction) read as 4.7e-05

###

details: in ethyl acetate, 283.15 K
measured_quantity: solubility (mole fraction)
Provide a numeric answer; units are not to be included.

Notebook: `CCCNS(=O)(=O)Nc1ncnc(OCCOc2ncc(Br)cn2)c1-c1ccc(Br)cc1` , solubility (mole fraction) read as 0.00483

###

conditions: in methanol, 293.15 K
measured_quantity: solubility (mole fraction)

Notebook: `CCCNS(=O)(=O)Nc1ncnc(OCCOc2ncc(Br)cn2)c1-c1ccc(Br)cc1` , solubility (mole fraction) read as 0.000232

###

settings: in isopropanol, 293.15 K
measured_quantity: solubility (mole fraction)
Provide a numeric answer; units are not to be included.

Notebook: `CCCNS(=O)(=O)Nc1ncnc(OCCOc2ncc(Br)cn2)c1-c1ccc(Br)cc1` , solubility (mole fraction) read as 0.000114

###

conditions: in methanol, 283.15 K
measured_quantity: solubility (mole fraction)
Provide a numeric answer; units are not to be included.

Notebook: `CCCNS(=O)(=O)Nc1ncnc(OCCOc2ncc(Br)cn2)c1-c1ccc(Br)cc1` , solubility (mole fraction) read as 0.000145

###

conditions: in methanol, 278.15 K
measured_quantity: solubility (mole fraction)
Provide a numeric answer; units are not to be included.

Notebook: `CCCNS(=O)(=O)Nc1ncnc(OCCOc2ncc(Br)cn2)c1-c1ccc(Br)cc1` , solubility (mole fraction) read as 0.000109

###

conditions: in ethanol, 273.15 K
measured_quantity: solubility (mole fraction)
Provide a numeric answer; units are not to be included.

Notebook: `CCCNS(=O)(=O)Nc1ncnc(OCCOc2ncc(Br)cn2)c1-c1ccc(Br)cc1` , solubility (mole fraction) read as 6.4e-05

###

details: in ethyl acetate, 308.15 K
measured_quantity: solubility (mole fraction)

Notebook: `CCCNS(=O)(=O)Nc1ncnc(OCCOc2ncc(Br)cn2)c1-c1ccc(Br)cc1` , solubility (mole fraction) read as 0.0107
